- System: Malme-3M
- experimental.protocol: NCI tumour cell line growth inhibition, 48 h
The source made the active and inactive calls. No stated cut-off is given here; in the data, active = GI50 up to about 1.1 µM and inactive = higher.
measured.parameter: GI50

>>> experimental_value("COC(=O)/C=C/[C@H]1[C@H](C)N1S(=O)(=O)c1ccc(C)cc1 (stereo not given in full)")
"50.2 µM (inactive)"
>>> experimental_value("CC(C)(CN1CCCCC1)C(/C=C/c1ccccc1)=N\\NC(=O)N/N=C(/C=C/c1ccccc1)C(C)(C)CN1CCCCC1")
"2.04 µM (inactive)"
>>> experimental_value("C=CCSSCC=C")
"40.9 µM (inactive)"
>>> experimental_value("Cc1ccc(NC(=O)CC2SC(Nc3cccc(Cl)c3C)=NC2=O)cc1 (stereo not given)")
"52.4 µM (inactive)"
>>> experimental_value("O=c1c2ccccc2nc(-c2ccccc2)n1NC1OC(CO)C(O)C(O)C1O (stereo not given)")
"> 100 µM (inactive)"
>>> experimental_value("O=C(/C=C/c1ccccc1F)c1ccc(Cl)c(Cl)c1")
"> 92.9 µM (inactive)"
>>> experimental_value("NC(=O)c1ncn(C2OC(CO)C(O)C2O)c1O (stereo not given)")
"> 100 µM (inactive)"
>>> experimental_value("CCOC(=O)C1=C(C)NC(C)=C(C(=O)OCCNC(=O)c2ccc(N=[N+]=[N-])cc2)C1c1ccccc1C(F)(F)F (stereo not given)")
"14 µM (inactive)"
>>> experimental_value("CC(C)OC(=O)c1ccc(NCC2=CC(=O)C=CC2=O)cc1")
"8.97 µM (inactive)"
>>> experimental_value("COc1cc2cc3c4c(cc(OC)c(OC)c4c2cc1OC)CCN3C(=O)N(C)C")
"59.3 µM (inactive)"
